Assay: Cytotoxicity against mouse RAW264.7 cells assessed as reduction in cell viability after 48 hrs by MTT assay
Format: toxicity, cell-based
Flag rule - IC50 at 48 h less than 50 µM flags 1; the remaining entries get -1.

1) COc1cc(NC(=O)c2ccc(C(F)(F)F)cc2C(F)(F)F)ccc1S(N)(=O)=O
-1
2) CCOc1ccc(C(=O)Nc2ccc(S(N)(=O)=O)c(OC)c2)cc1
-1
3) COc1cc(NC(=O)c2cccc(C(F)(F)F)c2)ccc1S(N)(=O)=O
-1
4) COc1cc(NC(=O)c2ccc3ccccc3c2)ccc1S(N)(=O)=O
1
5) COc1cc(NC(=O)c2cccc(C#N)c2)ccc1S(N)(=O)=O
1
6) COc1cc(NC(=O)c2ccc(Cl)c([N+](=O)[O-])c2)ccc1S(N)(=O)=O
-1
7) COc1cc(NC(=O)c2cc(OC)c(OC)c(OC)c2)ccc1S(N)(=O)=O
1
8) COc1cc(NC(=O)c2ccc([N+](=O)[O-])cc2)ccc1S(N)(=O)=O
-1
9) COc1cc(NC(=O)c2ccccc2[N+](=O)[O-])ccc1S(N)(=O)=O
-1
10) COc1cc(NC(=O)c2ccc(Cl)c(Cl)c2)ccc1S(N)(=O)=O
1
11) COc1cc(NC(=O)c2ccc(Cl)cc2)ccc1S(N)(=O)=O
1
12) COc1cc(NC(=O)c2cccc(I)c2)ccc1S(N)(=O)=O
-1
13) COc1cc(NC(=O)c2ccc(C)cc2)ccc1S(N)(=O)=O
-1
14) COc1cc(NC(=O)c2ccc(C)c([N+](=O)[O-])c2)ccc1S(N)(=O)=O
-1
15) COc1cc(NC(=O)c2cc(C(F)(F)F)cc(C(F)(F)F)c2)ccc1S(N)(=O)=O
1
16) COc1cc(NC(=O)COCC(=O)Nc2ccc(S(N)(=O)=O)c(OC)c2)ccc1S(N)(=O)=O
-1
17) COc1cccc(C(=O)Nc2ccc(S(N)(=O)=O)c(OC)c2)c1
-1
18) COc1cc(NC(=O)c2ccc(OC(F)(F)F)cc2)ccc1S(N)(=O)=O
1
19) CCc1ccc(C(=O)Nc2ccc(S(N)(=O)=O)c(OC)c2)cc1
1
20) COc1cc(NC(=O)c2cccc(Br)c2)ccc1S(N)(=O)=O
1
21) COc1cc(NC(=O)c2ccc3c(c2)OCO3)ccc1S(N)(=O)=O
1
22) COc1cc(NC(=O)c2ccccn2)ccc1S(N)(=O)=O
-1
23) COc1cc(NC(=O)c2ccc(N(C)C)cc2)ccc1S(N)(=O)=O
-1
24) COc1cc(NC(=O)c2ccc(C#N)cc2)ccc1S(N)(=O)=O
-1

====

Assay: Selectivity index, ratio of IC50 for HEK293 cells to IC50 for antitrypanosomal activity against bloodstream Trypanosoma brucei Lister 427
Type: toxicity
Conditions: human, read-out: Ratio IC50
Reported property: selectivity ratio

1. COc1cc(NC(=O)c2cc(OC)c(OC)c(OC)c2)ccc1S(N)(=O)=O
0.36
2. COc1cc(NC(=O)c2cccc(I)c2)ccc1S(N)(=O)=O
2.53
3. COc1cc(NC(=O)c2ccc3ccccc3c2)ccc1S(N)(=O)=O
17.9
4. COc1cc(NC(=O)c2cccc(Br)c2)ccc1S(N)(=O)=O
3.66
5. COc1cc(NC(=O)c2ccc(OC(F)(F)F)cc2)ccc1S(N)(=O)=O
0.99

====

Experiment: Selectivity index, ratio of IC50 for mouse RAW264.7 cells to IC50 for antitrypanosomal activity against bloodstream Trypanosoma brucei Lister 427
Assay type: toxicity
Conditions: read-out: Ratio IC50
Known selectivity ratio of a selection of molecules
Reported property: selectivity ratio

1. COc1cc(NC(=O)COCC(=O)Nc2ccc(S(N)(=O)=O)c(OC)c2)ccc1S(N)(=O)=O
0.95
2. COc1cc(NC(=O)c2ccc3ccccc3c2)ccc1S(N)(=O)=O
18.1
3. COc1cc(NC(=O)c2ccc3c(c2)OCO3)ccc1S(N)(=O)=O
4.41
